Data provenance is the NIST ThermoML archive (doi:10.1021/je020107x).

test: refractive index (Na D-line) (dimensionless); settings: 298.15 K; 101.33 kPa; Liquid; Standard Abbe refractometry
Numbers after ± are expanded uncertainties.
# reported refractive index; entries follow

> print(dat)
      mol       meas.value
1  CCCCCC  1.3728 ± 0.0005

Attention now shifts to the item below.
Any idea what its refractive index is? The compound is Clc1cccc(Cl)c1
1.5432 ± 0.0005

---

Entries annotated with measured refractive index
test: refractive index (Na D-line) (dimensionless); settings: 298.15 K; 101.33 kPa; Liquid; Standard Abbe refractometry
I only need the number, thanks.

Solved cases (4 shown):
> print(dat)
                  mol      readout.kind  meas.value
1          Clc1ccccc1  refractive index      1.5218
2  Clc1ccc(Cl)c(Cl)c1  refractive index       1.522
3        Clc1ccccc1Cl  refractive index      1.5491
4    CCCCCCCCCCCCCCCC  refractive index      1.4325

Could you now consider this next compound?
Tell me the measured refractive index of CCCCCCCCCCCC , please.
1.4275
